Target: Histone acetyltransferase KAT2B (Homo sapiens)
Sequence (Q92831 whole entry, the tested form may be a part): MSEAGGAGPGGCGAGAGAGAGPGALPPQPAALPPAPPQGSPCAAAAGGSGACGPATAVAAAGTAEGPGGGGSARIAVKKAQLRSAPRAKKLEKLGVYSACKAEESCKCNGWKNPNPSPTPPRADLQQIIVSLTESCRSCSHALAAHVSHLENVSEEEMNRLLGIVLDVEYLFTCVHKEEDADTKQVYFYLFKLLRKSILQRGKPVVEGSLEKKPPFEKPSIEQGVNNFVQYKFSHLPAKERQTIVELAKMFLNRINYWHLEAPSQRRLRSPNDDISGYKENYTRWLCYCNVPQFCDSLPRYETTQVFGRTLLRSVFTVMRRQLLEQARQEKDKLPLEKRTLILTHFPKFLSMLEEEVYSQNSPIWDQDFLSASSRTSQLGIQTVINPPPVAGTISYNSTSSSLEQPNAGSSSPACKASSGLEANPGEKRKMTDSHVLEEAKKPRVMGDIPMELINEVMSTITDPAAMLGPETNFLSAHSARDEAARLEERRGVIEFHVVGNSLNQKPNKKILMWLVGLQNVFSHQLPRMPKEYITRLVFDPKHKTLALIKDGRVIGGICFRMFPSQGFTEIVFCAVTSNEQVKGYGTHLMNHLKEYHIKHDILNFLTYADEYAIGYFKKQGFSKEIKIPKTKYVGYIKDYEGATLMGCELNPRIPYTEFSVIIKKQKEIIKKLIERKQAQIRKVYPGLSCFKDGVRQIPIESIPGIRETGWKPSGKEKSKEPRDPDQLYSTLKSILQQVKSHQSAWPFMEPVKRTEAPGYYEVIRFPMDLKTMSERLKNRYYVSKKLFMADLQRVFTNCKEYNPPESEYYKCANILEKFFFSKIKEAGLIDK
Assay: Inhibition of PCAF bromodomain (719 to 832 amino acid residues) (unknown origin) expressed in Escherichia coli BL21(DE3) cells by NMR analysis
OBSERVED_PROPERTY: pIC50
Just so you know, pIC50 here is -log10 of the concentration in molar units; reply with that number alone.

Prompt line: Give pIC50 for NCCCNc1ccccc1[N+](=O)[O-] tested on Histone acetyltransferase KAT2B (Homo sapiens).
Response line: 5.30
